- tested target: UniProt:P00749
- protocol description: Compound was tested for inhibition of human urokinase-type plasminogen activator
assay metric: selectivity ratio

[[record]]
molecule = "NCc1cccc(NC(=O)CN2CCCCC(NC(=O)c3ccc(-c4ccccc4)cc3)C2=O)c1 (centres undefined)"
observed_measurement = "> 130"

[[record]]
molecule = "Cc1ccc(CN)cc1NC(=O)CN1CCCCC(NC(=O)c2ccc(-c3ccccc3)cc2)C1=O (centres undefined)"
observed_measurement = "> 450"

[[record]]
molecule = "NCc1ccc(Cl)c(NC(=O)CN2CCCCC(NC(=O)c3ccc(-c4ccccc4)cc3)C2=O)c1 (centres undefined)"
observed_measurement = "> 870"

[[record]]
molecule = "NCc1cccc(NC(=O)CN2CCCCC(NC(=O)CC(c3ccccc3)c3ccccc3)C2=O)c1 (centres undefined)"
observed_measurement = "> 170"


###

Let's look at some compounds and their measured IC50.
- tested target: Tryptase (Homo sapiens, UniProt Q9BZJ3+Q15661+Q9NRR2)
- protocol description: Inhibition of human tryptase.
- Assay type: protein assay
assay metric: IC50

[[record]]
compound = "O=C(CN1CCCCC(NC(=O)c2ccc(-c3ccccc3)cc2)C1=O)Nc1ccc2c(c1)CNCC2 (stereo not given)"
tested_target = "Tryptase (Homo sapiens, UniProt Q9BZJ3+Q15661+Q9NRR2)"
assay_metric = "IC50"
observed_measurement = "> 33 µM"

[[record]]
compound = "NCc1ccccc1NC(=O)CN1CCCCC(NC(=O)c2ccc(-c3ccccc3)cc2)C1=O (stereo not given)"
tested_target = "Tryptase (Homo sapiens, UniProt Q9BZJ3+Q15661+Q9NRR2)"
assay_metric = "IC50"
observed_measurement = "> 33 µM"

[[record]]
compound = "Nc1ccc(CNC(=O)CN2CCCCC(NC(=O)c3ccc(-c4ccccc4)cc3)C2=O)cc1 (stereo not given)"
tested_target = "Tryptase (Homo sapiens, UniProt Q9BZJ3+Q15661+Q9NRR2)"
assay_metric = "IC50"
observed_measurement = "> 33 µM"

[[record]]
compound = "Nc1cccc(CNC(=O)CN2CCCCC(NC(=O)c3ccc(-c4ccccc4)cc3)C2=O)c1 (stereo not given)"
tested_target = "Tryptase (Homo sapiens, UniProt Q9BZJ3+Q15661+Q9NRR2)"
assay_metric = "IC50"
observed_measurement = "> 33 µM"

[[record]]
compound = "CNCc1cccc(NC(=O)CN2CCCCC(NC(=O)c3ccc(-c4ccccc4)cc3)C2=O)c1 (stereo not given)"
tested_target = "Tryptase (Homo sapiens, UniProt Q9BZJ3+Q15661+Q9NRR2)"
assay_metric = "IC50"
observed_measurement = "> 33 µM"

[[record]]
compound = "NC(=O)c1cccc(NC(=O)CN2CCCCC(NC(=O)c3ccc(-c4ccccc4)cc3)C2=O)c1 (stereo not given)"
tested_target = "Tryptase (Homo sapiens, UniProt Q9BZJ3+Q15661+Q9NRR2)"
assay_metric = "IC50"
observed_measurement = "> 33 µM"

[[record]]
compound = "NCCCCNC(=O)CN1CCCCC(NC(=O)c2ccc(-c3ccccc3)cc2)C1=O (stereo not given)"
tested_target = "Tryptase (Homo sapiens, UniProt Q9BZJ3+Q15661+Q9NRR2)"
assay_metric = "IC50"
observed_measurement = "> 33 µM"

[[record]]
compound = "NCCCCCCNC(=O)CN1CCCCC(NC(=O)c2ccc(-c3ccccc3)cc2)C1=O (stereo not given)"
tested_target = "Tryptase (Homo sapiens, UniProt Q9BZJ3+Q15661+Q9NRR2)"
assay_metric = "IC50"
observed_measurement = "> 33 µM"

[[record]]
compound = "NC1CCCc2ccc(NC(=O)CN3CCCCC(NC(=O)c4ccc(-c5ccccc5)cc4)C3=O)cc21 (stereo not given)"
tested_target = "Tryptase (Homo sapiens, UniProt Q9BZJ3+Q15661+Q9NRR2)"
assay_metric = "IC50"
observed_measurement = "> 33 µM"

[[record]]
compound = "NCc1cccc(NC(=O)CN2CCCCC(NC(=O)CCCCc3ccccc3)C2=O)c1 (stereo not given)"
tested_target = "Tryptase (Homo sapiens, UniProt Q9BZJ3+Q15661+Q9NRR2)"
assay_metric = "IC50"
observed_measurement = "2.9 µM"

[[record]]
compound = "NCc1cccc(NC(=O)CN2CCCCC(NC(=O)c3ccc(C4CCCCC4)cc3)C2=O)c1 (stereo not given)"
tested_target = "Tryptase (Homo sapiens, UniProt Q9BZJ3+Q15661+Q9NRR2)"
assay_metric = "IC50"
observed_measurement = "0.98 µM"

[[record]]
compound = "O=C(CN1CCCCC(NC(=O)c2ccc(-c3ccccc3)cc2)C1=O)NCC1CCNCC1 (stereo not given)"
tested_target = "Tryptase (Homo sapiens, UniProt Q9BZJ3+Q15661+Q9NRR2)"
assay_metric = "IC50"
observed_measurement = "> 33 µM"

[[record]]
compound = "NCc1ccc(Cl)c(NC(=O)CN2CCCCC(NC(=O)c3ccc(-c4ccccc4)cc3)C2=O)c1 (stereo not given)"
tested_target = "Tryptase (Homo sapiens, UniProt Q9BZJ3+Q15661+Q9NRR2)"
assay_metric = "IC50"
observed_measurement = "0.038 µM"

[[record]]
compound = "NCc1cccc(NC(=O)CN2CCCCC(NC(=O)c3ccc(Cc4ccccc4)cc3)C2=O)c1 (stereo not given)"
tested_target = "Tryptase (Homo sapiens, UniProt Q9BZJ3+Q15661+Q9NRR2)"
assay_metric = "IC50"
observed_measurement = "0.98 µM"

[[record]]
compound = "CCN(CC)Cc1cccc(NC(=O)CN2CCCCC(NC(=O)c3ccc(-c4ccccc4)cc3)C2=O)c1 (stereo not given)"
tested_target = "Tryptase (Homo sapiens, UniProt Q9BZJ3+Q15661+Q9NRR2)"
assay_metric = "IC50"
observed_measurement = "> 33 µM"


Hey, just so you know, these numbers are from ChEMBL document CHEMBL1139445.
